Target: Phosphatidylinositol 4-phosphate 3-kinase C2 domain-containing subunit alpha (Homo sapiens, UniProt O00443)
Sequence (O00443 whole entry, the tested form may be a part): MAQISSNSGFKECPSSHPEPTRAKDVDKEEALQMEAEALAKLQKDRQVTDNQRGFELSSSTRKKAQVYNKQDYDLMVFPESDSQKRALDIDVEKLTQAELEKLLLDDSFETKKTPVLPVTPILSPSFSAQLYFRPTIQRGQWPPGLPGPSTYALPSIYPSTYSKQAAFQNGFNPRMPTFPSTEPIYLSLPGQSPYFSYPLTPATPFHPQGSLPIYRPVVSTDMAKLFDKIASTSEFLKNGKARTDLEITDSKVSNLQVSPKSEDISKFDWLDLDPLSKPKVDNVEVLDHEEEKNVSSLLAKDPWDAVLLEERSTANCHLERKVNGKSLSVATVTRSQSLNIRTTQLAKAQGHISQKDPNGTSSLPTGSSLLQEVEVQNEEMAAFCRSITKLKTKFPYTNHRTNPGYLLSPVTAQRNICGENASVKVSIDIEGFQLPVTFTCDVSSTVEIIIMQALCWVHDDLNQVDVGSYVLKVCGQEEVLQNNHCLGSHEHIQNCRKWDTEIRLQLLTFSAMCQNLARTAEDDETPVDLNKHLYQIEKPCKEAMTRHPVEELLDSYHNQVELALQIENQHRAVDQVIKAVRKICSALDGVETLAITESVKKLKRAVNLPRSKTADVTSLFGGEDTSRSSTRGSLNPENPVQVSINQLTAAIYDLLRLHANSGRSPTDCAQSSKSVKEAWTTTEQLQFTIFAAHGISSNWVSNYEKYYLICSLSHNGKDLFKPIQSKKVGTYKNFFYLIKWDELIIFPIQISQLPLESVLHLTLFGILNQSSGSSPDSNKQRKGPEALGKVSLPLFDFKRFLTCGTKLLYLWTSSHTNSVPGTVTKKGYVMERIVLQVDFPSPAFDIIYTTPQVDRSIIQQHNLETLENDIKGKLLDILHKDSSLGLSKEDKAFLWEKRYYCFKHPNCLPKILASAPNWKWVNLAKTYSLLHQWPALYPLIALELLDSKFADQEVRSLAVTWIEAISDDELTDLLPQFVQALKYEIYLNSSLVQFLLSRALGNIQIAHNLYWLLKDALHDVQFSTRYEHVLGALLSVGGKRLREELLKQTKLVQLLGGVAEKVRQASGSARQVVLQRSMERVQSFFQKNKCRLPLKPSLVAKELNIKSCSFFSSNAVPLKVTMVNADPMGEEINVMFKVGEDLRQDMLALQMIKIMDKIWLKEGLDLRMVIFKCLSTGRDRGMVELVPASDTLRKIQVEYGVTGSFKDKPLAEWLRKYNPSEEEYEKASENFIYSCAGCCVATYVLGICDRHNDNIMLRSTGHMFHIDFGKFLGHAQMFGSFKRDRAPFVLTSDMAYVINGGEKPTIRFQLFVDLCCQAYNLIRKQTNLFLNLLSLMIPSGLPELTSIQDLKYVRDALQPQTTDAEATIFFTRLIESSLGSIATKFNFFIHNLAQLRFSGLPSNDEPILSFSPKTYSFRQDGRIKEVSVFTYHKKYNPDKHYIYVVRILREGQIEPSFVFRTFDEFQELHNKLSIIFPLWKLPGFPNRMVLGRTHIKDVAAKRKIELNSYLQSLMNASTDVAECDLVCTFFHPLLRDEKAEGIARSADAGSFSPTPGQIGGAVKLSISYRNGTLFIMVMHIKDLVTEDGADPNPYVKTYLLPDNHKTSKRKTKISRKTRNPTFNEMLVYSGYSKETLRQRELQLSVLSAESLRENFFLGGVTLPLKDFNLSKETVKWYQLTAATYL
Experiment: Inhibition of PI3K C2alpha
measured.property: pIC50
Recall that pIC50 is obtained by taking minus log10 of the concentration measured in molar.

// CN1CCC(NC(=O)c2ccc(-c3ccc(-n4c(=O)ccc5cnc6ccc(-c7cnc8ccccc8c7)cc6c54)cc3C(F)(F)F)cc2)CC1 : pIC50 value = 5.95

====

Molecular target: CYP3A4 (Homo sapiens, UniProt P08684)
Sequence (P08684 whole entry): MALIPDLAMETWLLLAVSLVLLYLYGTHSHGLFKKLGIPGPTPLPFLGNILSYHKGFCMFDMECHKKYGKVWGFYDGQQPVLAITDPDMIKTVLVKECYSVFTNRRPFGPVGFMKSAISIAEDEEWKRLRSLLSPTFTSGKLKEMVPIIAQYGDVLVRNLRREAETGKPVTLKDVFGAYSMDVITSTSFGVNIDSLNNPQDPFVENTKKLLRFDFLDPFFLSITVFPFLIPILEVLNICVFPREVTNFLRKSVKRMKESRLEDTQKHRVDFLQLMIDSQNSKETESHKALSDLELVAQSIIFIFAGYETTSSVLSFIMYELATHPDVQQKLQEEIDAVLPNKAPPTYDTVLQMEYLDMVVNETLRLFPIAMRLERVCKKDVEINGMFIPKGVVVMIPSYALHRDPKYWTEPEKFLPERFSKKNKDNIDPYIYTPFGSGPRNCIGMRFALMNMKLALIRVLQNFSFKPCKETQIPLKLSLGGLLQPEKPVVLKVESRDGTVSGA
Assay: Inhibition of CYP3A4 at 10 uM
Assay type: ADME
# maps each entry to its inhibition at 10 µM
# output: bare number, implied unit %

Cc1cc(-n2c(=O)ccc3cnc4ccc(-c5cnc6ccccc6c5)cc4c32)ccc1-c1ccc(C(=O)NC2CCN(C)CC2)cc1
34

As a next step, examine the compound that follows.
// CN1CCC(NC(=O)c2ccc(-c3ccc(-n4c(=O)ccc5cnc6ccc(-c7cnc8ccccc8c7)cc6c54)cc3C(F)(F)F)cc2)CC1 : inhibition at 10 µM value = 61

====

# maps each entry to its Tmax
Assay: Tmax in po dosed mouse
Format: ADME, organism-based
Conditions: in vivo
# output: bare number, implied unit h

Cc1cc(-n2c(=O)ccc3cnc4ccc(-c5cnc6ccccc6c5)cc4c32)ccc1-c1ccc(C(=O)NC2CCN(C)CC2)cc1
1

// CN1CCC(NC(=O)c2ccc(-c3ccc(-n4c(=O)ccc5cnc6ccc(-c7cnc8ccccc8c7)cc6c54)cc3C(F)(F)F)cc2)CC1 : Tmax value = 4

====

Assay: Half life in iv dosed mouse
Format: ADME, organism-based
Conditions: in vivo
# maps each entry to its half-life
# output: bare number, implied unit h

Cc1cc(-n2c(=O)ccc3cnc4ccc(-c5cnc6ccccc6c5)cc4c32)ccc1-c1ccc(C(=O)NC2CCN(C)CC2)cc1
1.85

As a next step, examine the molecule that follows.
// CN1CCC(NC(=O)c2ccc(-c3ccc(-n4c(=O)ccc5cnc6ccc(-c7cnc8ccccc8c7)cc6c54)cc3C(F)(F)F)cc2)CC1 : half-life value = 3.61

====

# maps each entry to its EC50
Test: Inhibition of PI3K-dependent Akt phosphorylation at T308 residue in human PC3 cells
Format: cell-based
Details: PC-3

Cc1cc(-n2c(=O)ccc3cnc4ccc(-c5ccc(N)nc5)cc4c32)ccc1-c1ccc(C(=O)NC2CCN(C)CC2)cc1
> 1250 nM
CN1CCC(NC(=O)c2ccc(-c3ccc(-n4c(=O)ccc5cnc6ccc(-c7cnc(N)nc7)cc6c54)cc3C(F)(F)F)cc2)CC1
1000 nM
O=c1ccc2cnc3ccc(-c4cnc5ccccc5c4)cc3c2n1-c1ccc(-c2ccc(COC3CCCCO3)cc2)c(C(F)(F)F)c1 (configuration not stated)
> 300 nM
O=C(O)c1ccc(-c2ccc(-n3c(=O)ccc4cnc5ccc(-c6cnc7ccccc7c6)cc5c43)cc2C(F)(F)F)cc1
> 300 nM
CN1CCC(NC(=O)c2ccc(-c3ccc(-n4c(=O)ccc5cnc6ccc(-c7cn[nH]c7)cc6c54)cc3C(F)(F)F)cc2)CC1
1000 nM

// CNC(=O)c1ccc(-c2ccc(-n3c(=O)ccc4cnc5ccc(-c6cnc7ccccc7c6)cc5c43)cc2C(F)(F)F)cc1 : EC50 value = > 300 nM

// O=c1ccc2cnc3ccc(-c4cnc5ccccc5c4)cc3c2n1-c1ccc(-c2ccc(CO)cc2)c(C(F)(F)F)c1 : EC50 value = > 300 nM

====

Target: Phosphatidylinositol 4-phosphate 3-kinase C2 domain-containing subunit beta (Homo sapiens, UniProt O00750)
Assay: Inhibition of PI3K C2beta
measured.property: pIC50
Recall that pIC50 is obtained by taking minus log10 of the concentration measured in molar.

// CN1CCC(NC(=O)c2ccc(-c3ccc(-n4c(=O)ccc5cnc6ccc(-c7cnc8ccccc8c7)cc6c54)cc3C(F)(F)F)cc2)CC1 : pIC50 value = 6.36

====

Test: AUC (0 to infinity) in iv dosed mouse
Format: ADME, organism-based
Design: time infinity, route intravenous
Details: plasma
# maps each entry to its AUC(0-inf)
Write the numeric value and follow it with the unit.

CCC(=O)N1CCN(c2ccc(-n3c(=O)ccc4cnc5ccc(-c6cnc7ccccc7c6)cc5c43)cc2C(F)(F)F)CC1 [TORIN1]
720 ng·h/mL
Cc1cc(-n2c(=O)ccc3cnc4ccc(-c5cnc6ccccc6c5)cc4c32)ccc1-c1ccc(C(=O)NC2CCN(C)CC2)cc1
737 ng·h/mL

// CN1CCC(NC(=O)c2ccc(-c3ccc(-n4c(=O)ccc5cnc6ccc(-c7cnc8ccccc8c7)cc6c54)cc3C(F)(F)F)cc2)CC1 : AUC(0-inf) value = 1390 ng·h/mL

====

Target: Phosphatidylinositol 4-kinase beta (Homo sapiens, UniProt Q9UBF8)
Sequence (Q9UBF8 whole entry): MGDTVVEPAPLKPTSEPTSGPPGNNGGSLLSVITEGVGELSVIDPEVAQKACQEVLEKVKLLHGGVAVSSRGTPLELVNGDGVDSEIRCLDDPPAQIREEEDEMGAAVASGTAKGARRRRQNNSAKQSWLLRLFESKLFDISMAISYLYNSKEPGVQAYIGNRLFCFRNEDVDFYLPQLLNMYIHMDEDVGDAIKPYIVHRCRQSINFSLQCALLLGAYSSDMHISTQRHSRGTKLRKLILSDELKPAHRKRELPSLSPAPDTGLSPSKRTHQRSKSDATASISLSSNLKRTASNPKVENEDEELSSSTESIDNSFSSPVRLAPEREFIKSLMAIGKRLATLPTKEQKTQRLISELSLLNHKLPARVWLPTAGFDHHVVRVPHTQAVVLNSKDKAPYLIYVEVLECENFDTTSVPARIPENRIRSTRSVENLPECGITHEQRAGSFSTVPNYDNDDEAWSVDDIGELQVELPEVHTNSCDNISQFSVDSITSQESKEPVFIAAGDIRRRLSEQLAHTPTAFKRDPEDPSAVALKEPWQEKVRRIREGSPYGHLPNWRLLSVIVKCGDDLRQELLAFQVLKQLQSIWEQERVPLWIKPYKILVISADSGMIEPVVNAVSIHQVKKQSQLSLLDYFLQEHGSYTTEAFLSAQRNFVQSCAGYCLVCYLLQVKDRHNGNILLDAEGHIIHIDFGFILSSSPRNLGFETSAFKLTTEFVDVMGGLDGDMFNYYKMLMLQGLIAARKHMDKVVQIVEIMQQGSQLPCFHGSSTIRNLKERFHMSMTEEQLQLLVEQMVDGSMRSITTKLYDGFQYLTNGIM
measured.property: pIC50
Recall that pIC50 is obtained by taking minus log10 of the concentration measured in molar.

// CN1CCC(NC(=O)c2ccc(-c3ccc(-n4c(=O)ccc5cnc6ccc(-c7cnc8ccccc8c7)cc6c54)cc3C(F)(F)F)cc2)CC1 : pIC50 value = 5.46

====

Experiment: Inhibition of PI3K-dependent Akt phosphorylation at T308 residue in human PC3 cells
Format: cell-based
Conditions: PC-3
pEC50: −log10 of the molar value.
# maps each entry to its pEC50

Reference set, count: 6
NC(=O)c1ccc(-c2ccc(-n3c(=O)ccc4cnc5ccc(-c6cnc7ccccc7c6)cc5c43)cc2C(F)(F)F)cc1
< 6.52
Cc1cc(-n2c(=O)ccc3cnc4ccc(-c5cnn(C)c5)cc4c32)ccc1-c1ccc(C(=O)NC2CCN(C)CC2)cc1
< 5.90
Cc1cc(-n2c(=O)ccc3cnc4ccc(-c5cnc6[nH]ccc6c5)cc4c32)ccc1-c1ccc(C(=O)NC2CCN(C)CC2)cc1
6.00
Cc1cc(-n2c(=O)ccc3cnc4ccc(-c5cnc6ccccc6c5)cc4c32)ccc1-c1ccc(C(=O)NC2CCN(C)CC2)cc1
6.00
Cc1cc(-n2c(=O)ccc3cnc4ccc(-c5cn[nH]c5)cc4c32)ccc1-c1ccc(C(=O)NC2CCN(C)CC2)cc1
< 5.90
COC(=O)c1ccc(-c2ccc(-n3c(=O)ccc4cnc5ccc(-c6cnc7ccccc7c6)cc5c43)cc2C(F)(F)F)cc1
< 6.52

// Cc1cc(-n2c(=O)ccc3cnc4ccccc4c32)ccc1-c1ccc(C(=O)NC2CCN(C)CC2)cc1 : pEC50 value = < 5.90

====

# maps each entry to its Cmax
Experiment: Cmax in iv dosed mouse
Format: ADME, organism-based
Set-up: route intravenous
Details: in vivo
# output: bare number, implied unit ng/mL

CN1CCC(NC(=O)c2ccc(-c3ccc(-n4c(=O)ccc5cnc6ccc(-c7cnc8ccccc8c7)cc6c54)cc3C(F)(F)F)cc2)CC1
1410

// Cc1cc(-n2c(=O)ccc3cnc4ccc(-c5cnc6ccccc6c5)cc4c32)ccc1-c1ccc(C(=O)NC2CCN(C)CC2)cc1 : Cmax value = 1050

====

Molecular target: Phosphatidylinositol 3-kinase catalytic subunit type 3 (Homo sapiens)
Sequence (Q8NEB9 whole entry): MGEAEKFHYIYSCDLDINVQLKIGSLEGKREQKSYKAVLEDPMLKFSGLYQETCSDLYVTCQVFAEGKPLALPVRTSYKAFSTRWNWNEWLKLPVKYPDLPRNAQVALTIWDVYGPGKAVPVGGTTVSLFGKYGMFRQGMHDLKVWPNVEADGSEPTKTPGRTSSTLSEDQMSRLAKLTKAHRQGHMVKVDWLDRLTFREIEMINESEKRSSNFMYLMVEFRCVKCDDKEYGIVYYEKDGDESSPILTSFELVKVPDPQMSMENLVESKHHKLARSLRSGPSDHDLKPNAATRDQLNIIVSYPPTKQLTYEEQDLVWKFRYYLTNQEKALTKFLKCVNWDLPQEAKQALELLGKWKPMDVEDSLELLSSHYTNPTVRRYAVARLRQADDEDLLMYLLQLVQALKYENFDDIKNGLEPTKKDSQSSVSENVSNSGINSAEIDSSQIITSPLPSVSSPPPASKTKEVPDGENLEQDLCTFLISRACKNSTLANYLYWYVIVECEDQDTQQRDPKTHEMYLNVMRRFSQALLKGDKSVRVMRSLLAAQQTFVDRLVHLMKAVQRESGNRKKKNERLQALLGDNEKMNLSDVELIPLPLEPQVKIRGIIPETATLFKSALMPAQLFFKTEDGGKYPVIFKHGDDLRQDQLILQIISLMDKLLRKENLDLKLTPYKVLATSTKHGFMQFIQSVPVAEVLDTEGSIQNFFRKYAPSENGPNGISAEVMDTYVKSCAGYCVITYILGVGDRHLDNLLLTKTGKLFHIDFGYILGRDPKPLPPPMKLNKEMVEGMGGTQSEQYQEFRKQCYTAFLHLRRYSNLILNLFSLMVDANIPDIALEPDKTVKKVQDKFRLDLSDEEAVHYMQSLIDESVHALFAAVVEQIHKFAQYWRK
Test: Inhibition of human VPS34
measured.property: IC50 (nM)
# output: bare number, implied unit nM

Simply: CN1CCC(NC(=O)c2ccc(-c3ccc(-n4c(=O)ccc5cnc6ccc(-c7cnc8ccccc8c7)cc6c54)cc3C(F)(F)F)cc2)CC1 , Phosphatidylinositol 3-kinase catalytic subunit type 3 (Homo sapiens), IC50 = 170

====

# maps each entry to its EC50
Biological target: Serine/threonine-protein kinase mTOR (Mus musculus)
Test: Inhibition of mTOR-dependent S6K phosphorylation at T389 residue in MEF cells
# output: bare number, implied unit µM

Reference set, count: 6
CN1CCC(NC(=O)c2ccc(-c3ccc(-n4c(=O)ccc5cnc6ccc(-c7cnc8ccccc8c7)cc6c54)cc3C(F)(F)F)cc2)CC1
0.005
CN1CCC(NC(=O)c2ccc(-c3ccc(-n4c(=O)ccc5cnc6ccc(-c7cnc(N)nc7)cc6c54)cc3C(F)(F)F)cc2)CC1
0.01
COC(=O)c1ccc(-c2ccc(-n3c(=O)ccc4cnc5ccc(-c6cnc7ccccc7c6)cc5c43)cc2C(F)(F)F)cc1
0.2
NC(=O)c1ccc(-c2ccc(-n3c(=O)ccc4cnc5ccc(-c6cnc7ccccc7c6)cc5c43)cc2C(F)(F)F)cc1
0.025
Cc1cc(-n2c(=O)ccc3cnc4ccc(-c5cnc6ccccc6c5)cc4c32)ccc1-c1ccc(C(=O)NC2CCN(C)CC2)cc1
0.001
O=c1ccc2cnc3ccc(-c4cnc5ccccc5c4)cc3c2n1-c1ccc(-c2ccc(CO)cc2)c(C(F)(F)F)c1
0.03

// Cc1cc(-n2c(=O)ccc3cnc4ccc(-c5cnc6[nH]ccc6c5)cc4c32)ccc1-c1ccc(C(=O)NC2CCN(C)CC2)cc1 : EC50 value = 0.025
